Origin of measurements: patent US20250098679A1

- System: Ipomoea hederacea (IPOHE)
- test summary: Post-emergence Test, Ipomoea hederacea (IPOHE)
- Assay type: in vivo
- Parameters: key: 5=81-100%, 4=61-80%, 3=41-60%, 2=21-40%, 1=0-20% damage
- test parameters: 1000 g/ha, evaluated after 13 days
measurement type: percentage damage caused to the plant, IPOHE (five-point scale)

Ask: Find the measured percentage damage caused to the plant, IPOHE (five-point scale) of CCn1c(Cn2ccc(C(F)(F)F)n2)cc(=O)c(C(=O)O)c1-c1ccc(S(C)(=O)=O)c(Cl)c1 [Compound 129] with Ipomoea hederacea (IPOHE) as test system.
Result: 0

Ask: Find the measured percentage damage caused to the plant, IPOHE (five-point scale) of CCn1c(Cn2ccc(C(F)(F)F)n2)cc(=O)c(C(=O)O)c1-c1ccc(Cl)c(F)c1 [Compound 30] with Ipomoea hederacea (IPOHE) as test system.
Result: 2 (2=21-40%)

Ask: Find the measured percentage damage caused to the plant, IPOHE (five-point scale) of CCc1ncnn1Cc1cc(=O)c(C(=O)O)c(-c2ccc(Cl)c(Cl)c2)n1CC [Compound 70] with Ipomoea hederacea (IPOHE) as test system.
Result: 1 (1=0-20%)

Ask: Find the measured percentage damage caused to the plant, IPOHE (five-point scale) of CCn1c(Cn2ccc(C3CC3)n2)cc(=O)c(C(=O)O)c1-c1ccc(Cl)c(Cl)c1 [Compound 179] with Ipomoea hederacea (IPOHE) as test system.
Result: 4 (4=61-80%)

###

- System: Setaria faberi (SETFA)
- test summary: Pre-emergence Test, Setaria faberi (SETFA)
- Type: in vivo
- test parameters: 1000 g/ha, evaluated after 13 days
measurement type: Pre-emergence Test SETFA, percentage damage caused to the plant (five-point scale)

Ask: Provide one value: measured Pre-emergence Test SETFA, percentage damage caused to the plant (five-point scale) of `CCn1c(Cn2cc3c(n2)CCCC3)cc(=O)c(C(=O)O)c1-c1ccc(Cl)c(Cl)c1`
Result: 1 (1=0-20%)

Ask: Provide one value: measured Pre-emergence Test SETFA, percentage damage caused to the plant (five-point scale) of `CCOc1cc(C)nn1Cc1cc(=O)c(C(=O)O)c(-c2ccc(Cl)c(Cl)c2)n1CC`
Result: 4 (4=61-80%)

Ask: Provide one value: measured Pre-emergence Test SETFA, percentage damage caused to the plant (five-point scale) of `CCn1c(Cn2cc(C(=O)OC)cn2)cc(=O)c(C(=O)OC(C)(C)C)c1-c1ccc(Cl)c(Cl)c1`
Result: 1 (1=0-20%)

Ask: Provide one value: measured Pre-emergence Test SETFA, percentage damage caused to the plant (five-point scale) of `CCOc1cc(C(F)(F)F)nn1Cc1cc(=O)c(C(=O)O)c(-c2ccc(Cl)c(Cl)c2)n1CC`
Result: 5 (5=81-100%)

Ask: Provide one value: measured Pre-emergence Test SETFA, percentage damage caused to the plant (five-point scale) of `CCn1c(Cn2ccc(C(F)(F)F)n2)cc(=O)c(C(=O)O)c1-c1ccc(Cl)c(C#N)c1`
Result: 3 (3=41-60%)

Ask: Provide one value: measured Pre-emergence Test SETFA, percentage damage caused to the plant (five-point scale) of `CCn1c(Cn2ccc(Cl)n2)cc(=O)c(C(=O)O)c1-c1ccc(S(C)(=O)=O)c(Cl)c1`
Result: 0

Ask: Provide one value: measured Pre-emergence Test SETFA, percentage damage caused to the plant (five-point scale) of `CCn1c(Cn2cc(C)cn2)cc(=O)c(C(=O)O)c1-c1ccc(Cl)c(Cl)c1`
Result: 0

Ask: Provide one value: measured Pre-emergence Test SETFA, percentage damage caused to the plant (five-point scale) of `CCn1c(Cn2ccc(I)n2)cc(=O)c(C(=O)O)c1-c1ccc(Cl)c(Cl)c1`
Result: 5 (5=81-100%)
